The reported measurements were obtained from paper PMC11871066.

Biological target: T1, biotinylated AviTag FAK FAT protein (human, biotin)
T1 construct: focal adhesion kinase (FAK), focal adhesion targeting (FAT) domain; captured on a streptavidin biosensor; also called focal adhesion targeting (FAT) domain
Assay: SPR; biotinylated AviTag FAT immobilised on a streptavidin (SADH) biosensor, ForteBio Pioneer FE, OneStep gradient injection at 150 µl/min; 100 mM Tris-Cl pH 8.0, 200 mM NaCl, 0.05% Tween-20; peptides 200 µM to 97 nM; KD from kinetic data, one-site model
Conditions: both partners purified
Bridge positions count the residues as written; N and C are the ends. Square brackets hold non-standard residues; d marks the D form. R8 = C=CCCCCCC[C@@](C)(N)C(=O)O; S5 = C=CCCC[C@](C)(N)C(=O)O
Listing of entries alongside the reported Kd.
Please respond with the number in µM and leave the unit unwritten.

* Ac-NL[R8]ELDRLW[S5]ELN-NH2 (staple 3-10) [stapled peptide 2007] | 60.6
* Ac-NLS[R8]LDRLLL[S5]LN-NH2 (staple 4-11) [stapled peptide 1905] | 146
* Ac-NLSELDR[S5]LLE[S5]N-NH2 (staple 8-12) [stapled peptide 2015] | 30.6

Kindly review the next binder as well.
For Ac-NLSE[R8]DRLLLE[S5]N-NH2 (staple 5-12) [stapled peptide 1914] the binder record lists Kd as 120
